Assay: In vivo GBM rat model: plasma chemistry
Details: GBM rats, 30 mg/kg oral, 5 days, plasma at necropsy
TG by entry:
Quick reminder: number only, in mg/dL, skip the unit.

1) O=C1CCc2cc(OS(=O)(=O)c3cccc4ccccc34)ccc2N1 [TR-G045]    120
2) O=C(COc1ccc2c(c1)CCC(=O)N2)N/N=C/c1cnc(-c2ccc(Cl)cc2)nc1 [TR-G066]    122
3) CC(C)CCOc1ccc2c(c1)CCC(=O)N2 [TR-G002]    115
4) Cn1nnc2c(C(N)=O)ncn2c1=O [TMZ, Temozolomide, reference compound]    111
5) C=CCOC(=O)COc1ccc2c(c1)CCC(=O)N2 [TR-G071]    129

Ask: Please report the recorded TG for COc1cc(NC(=O)COc2ccc3c(c2)CCC(=O)N3)cc(OC)c1 [TR-G091] .
Result: 121

Ask: Can you handle C=Cc1ccc(COc2ccc3c(c2)CCC(=O)N3)cc1 [TR-G053] next?
Result: 117

====

Assay: In vivo GBM rat model: plasma chemistry
Parameters: unit not given here
Conditions: GBM rats, 30 mg/kg oral, 5 days, plasma at necropsy
ENDPOINT_LABEL: HDLC
# output: bare number, no unit

Consider the reported HDLC for these compounds:
1. O=C(COc1ccc2c(c1)CCC(=O)N2)N/N=C/c1cnc(-c2ccc(Cl)cc2)nc1    34.24
2. COc1cc(NC(=O)COc2ccc3c(c2)CCC(=O)N3)cc(OC)c1    36.57
3. O=C1CCc2cc(OS(=O)(=O)c3cccc4ccccc34)ccc2N1    37.58
4. C=CCOC(=O)COc1ccc2c(c1)CCC(=O)N2    34.9
5. CC(C)CCOc1ccc2c(c1)CCC(=O)N2    37.5

Shifting focus to the compound that follows.
Ask: Please report the recorded HDLC for C=Cc1ccc(COc2ccc3c(c2)CCC(=O)N3)cc1 .
Result: 34.33

====

Tested on: U138-MG human glioma cell
Assay: Cell proliferation analysis (MTT)
Format: cell-based
Conditions: Homo sapiens, 48 h, 10 µM, two days, MTT
inhibition at 10 µM by entry:
Quick reminder: number only, in %, skip the unit.

Consider the reported inhibition at 10 µM for these molecules:
1) COc1cc(NC(=O)COc2ccc3c(c2)CCC(=O)N3)cc(OC)c1OC [TR-G094]    20
2) O=C1CCc2cc(OCCCCCCOC3CCCCO3)ccc2N1 (centres unmarked) [TR-G031]    20
3) CN1C(=O)/C(=N\NC(=O)COc2ccc3c(c2)CCC(=O)N3)c2cc(F)ccc21 [TR-G047]    38
4) O=C(COc1ccc2c(c1)CCC(=O)N2)NN=Cc1ccc(Cl)cc1 [TR-G021]    40
5) Nc1ncc(/C=N/NC(=O)COc2ccc3c(c2)CCC(=O)N3)cn1 [TR-G076]    8

Ask: Please report the recorded inhibition at 10 µM for O=C1CCc2cc(OCCCBr)ccc2N1 [TR-G074] .
Result: 19

Ask: Can you handle O=C1CCc2cc(OC(=O)N3CCCC3)ccc2N1 [TR-G061] next?
Result: 8

Ask: Can you handle O=C1CCc2cc(OC(=O)Nc3ccc([N+](=O)[O-])cc3)ccc2N1 [TR-G133] next?
Result: 23

Ask: Can you handle O=C1CCc2cc(OC(=O)CCl)ccc2N1 [TR-G016] next?
Result: 5
